assay: Salt Screen #4: compatibility (CMP) in sweetened cold-brewed coffee and tea; type: in vivo; conditions: sweetener compositions in cold-brewed coffee and tea, pH-sensitive flavors
Quantity: Does the Electrolyte Salt have Suitable Compatibility (CMP)?

compound="[Cl-].[K+] [Potassium Chloride, potassium chloride]" assay_result=Yes
compound="[Cl-].[Na+] [Sodium Chloride, sodium chloride]" assay_result=Yes
